B1: KRT18 (parent)
chain: RVRSLETENRRLESKIREHLEKKG

variants of: B1; assay: protein stability index of a GFP-peptide fusion (GPS, HEK-293T) (PSI 1-6); higher = more stable; conditions: c terminus: a fixed tail appended;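 also: lentivirally expressed fusions sorted by FACS into six bins by GFP to DsRed ratio, PSI derived from sequencing read proportions per bin multiplied by bin number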

{"variant key": "E18M", "protein stability index": 3.94}
{"variant key": "G24N", "protein stability index": 4.61}
{"variant key": "R11F", "protein stability index": 4.74}
{"variant key": "E6I", "protein stability index": 3.84}
{"variant key": "E8Q", "protein stability index": 3.38}
{"variant key": "L5M", "protein stability index": 4.77}
{"variant key": "S4G", "protein stability index": 4.35}
{"variant key": "H19E", "protein stability index": 5.26}
{"variant key": "K23T", "protein stability index": 4.22}
{"variant key": "R1K", "protein stability index": 3.94}
{"variant key": "R10Y", "protein stability index": 4.94}
{"variant key": "E21T", "protein stability index": 4.2}
{"variant key": "H19C", "protein stability index": 3.82}
{"variant key": "R3M", "protein stability index": 3.72}
{"variant key": "R10C", "protein stability index": 4}
{"variant key": "R10L", "protein stability index": 4.49}
{"variant key": "V2P", "protein stability index": 4.65}
{"variant key": "K22N", "protein stability index": 4.09}
{"variant key": "K22I", "protein stability index": 3.85}
{"variant key": "R10G", "protein stability index": 4.68}
{"variant key": "E8L", "protein stability index": 4.33}
{"variant key": "L5Y", "protein stability index": 4.32}
{"variant key": "R1D", "protein stability index": 4.9}
{"variant key": "K22V", "protein stability index": 4.52}
{"variant key": "K22Q", "protein stability index": 4.89}
{"variant key": "R11L", "protein stability index": 4.31}
{"variant key": "R3L", "protein stability index": 4.51}
{"variant key": "V2N", "protein stability index": 4.16}
{"variant key": "H19I", "protein stability index": 4.03}
{"variant key": "I16V", "protein stability index": 4.37}
{"variant key": "K23Q", "protein stability index": 4.32}
{"variant key": "E13I", "protein stability index": 2.37}
{"variant key": "E13F", "protein stability index": 2.16}
{"variant key": "L20K", "protein stability index": 4.96}
{"variant key": "R17K", "protein stability index": 4.39}
{"variant key": "E21R", "protein stability index": 3.99}
{"variant key": "K15L", "protein stability index": 3.88}
{"variant key": "E21H", "protein stability index": 4.43}
{"variant key": "L12G", "protein stability index": 5.35}
{"variant key": "K15P", "protein stability index": 5.23}
{"variant key": "H19F", "protein stability index": 4}
{"variant key": "V2H", "protein stability index": 4.07}
{"variant key": "L20P", "protein stability index": 5.58}
{"variant key": "L20S", "protein stability index": 5.44}
{"variant key": "E13H", "protein stability index": 4.21}
{"variant key": "R1C", "protein stability index": 4.66}
